- MEASUREMENT TARGET: alpha2B receptor (Homo sapiens, UniProt P18089)
- Construct: expressed in transfected cells; host or cells: NIH-3T3 cells
- Sequence (P18089 whole entry): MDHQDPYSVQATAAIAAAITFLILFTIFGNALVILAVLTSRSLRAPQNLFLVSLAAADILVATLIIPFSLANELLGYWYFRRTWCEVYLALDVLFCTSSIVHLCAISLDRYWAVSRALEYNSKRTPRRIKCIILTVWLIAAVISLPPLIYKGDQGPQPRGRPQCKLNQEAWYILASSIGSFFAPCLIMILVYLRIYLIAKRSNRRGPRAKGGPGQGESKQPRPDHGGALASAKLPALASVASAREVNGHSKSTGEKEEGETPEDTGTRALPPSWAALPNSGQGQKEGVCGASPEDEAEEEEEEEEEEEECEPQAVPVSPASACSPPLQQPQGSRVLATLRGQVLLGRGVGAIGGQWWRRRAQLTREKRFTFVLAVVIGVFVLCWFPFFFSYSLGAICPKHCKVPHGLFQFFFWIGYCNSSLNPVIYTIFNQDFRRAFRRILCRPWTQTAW
- EXPERIMENT NOTES: RSAT (Receptor Selection and Amplification Technology) assay, alpha 2B
- Type: cell-based
- MEASUREMENT CONDITIONS: RSAT, transfected NIH-3T3 cells; "not active" = not active at concentrations less than 10 micromolar; read-out: Alpha 2B EC50
Recorded EC50 for the following compounds
OBSERVED PROPERTY: EC50

compound=COc1c(Cl)cccc1CNC(=O)NCCF recorded_value="93 nM"
compound=Cc1cc(CNC(=O)NCCF)nn1C recorded_value="2280 nM"
compound=O=C(NCCF)NCc1ccccc1Br recorded_value="85 nM"
compound=O=C(NCCF)NCc1cccc(F)c1 recorded_value="221 nM"
compound=O=C(NCCF)NCc1ccc(O)cc1 recorded_value="293 nM"
compound=O=C(NCCF)NCc1cccc2c1OCO2 recorded_value="119 nM"
compound=O=C(NCCF)NCc1cccc(C(F)(F)F)c1Cl recorded_value="106 nM"
compound=O=C(NCCF)NCc1cccc(Cl)c1F recorded_value="124 nM"
compound=O=C(NCCF)NCc1cccc(I)c1 recorded_value="171 nM"
compound=O=C(NCCF)Nc1ccc2ccccc2c1 recorded_value="1580 nM"
compound=O=C(NCCF)NCc1cccc(Br)c1Cl recorded_value="25 nM"
compound=CCc1ccccc1NC(=O)NCCF recorded_value="> 2000 nM"
compound=O=C(NCCF)Nc1ccc2c(c1)CCC2 recorded_value="115 nM"
compound=Cc1cccc(CNC(=O)NCCF)n1 recorded_value="414 nM"
compound=O=C(NCCF)NCc1cccc2c1OCC2 recorded_value="27 nM"
compound=O=C(NCCF)NCc1ccccc1I recorded_value="277 nM"
compound="Cc1cccc(C(NC(=O)NCCF)c2ccc(C)s2)c1 (centres unmarked)" recorded_value="829 nM"
compound=Cc1cccc(NC(=O)NCCF)c1C recorded_value="401 nM"
compound=O=C(NCCF)NCc1cccc(Br)c1 recorded_value="355 nM"
compound=COc1c(Br)cccc1CNC(=O)NCCF recorded_value="2530 nM"
compound=O=C(NCCF)NCc1ccccc1C(F)(F)F recorded_value="569 nM"
compound=C[C@H](NC(=O)NCCF)c1ccccc1 recorded_value="66 nM"
compound="O=C(NCCF)NC(c1ccccc1)c1ccccc1 [Compound 32, 1-benzhydryl-3-(2-fluoro-ethyl)-urea]" recorded_value="325 nM"
compound=O=C(NCCF)Nc1cccc2c1CCCC2 recorded_value="157 nM"
compound=O=C(NCCF)Nc1cccc2c1CCC2 recorded_value="1220 nM"
compound=O=C(NCCF)Nc1cccc2ccccc12 recorded_value="458 nM"
compound=O=C(NCCF)Nc1ccccc1Br recorded_value="2650 nM"
compound=Cc1ccccc1CNC(=O)NCCF recorded_value="152 nM"
compound=O=C(NCCF)NCc1cccc(I)c1I recorded_value="96 nM"
compound=O=C(NCCF)NCc1ccccc1F recorded_value="148 nM"
compound=Cc1cccc(C)c1NC(=O)NCCF recorded_value="679 nM"
compound=O=C(NCCF)NCc1cccc(Br)n1 recorded_value="592 nM"
compound=Cc1cccc(CNC(=O)NCCF)c1 recorded_value="88 nM"
compound=Cc1nn(C)c(C)c1CNC(=O)NCCF recorded_value="2390 nM"
compound=COc1c(C)cccc1CNC(=O)NCCF recorded_value="40 nM"
compound=O=C(NCCF)NCc1cccc(O)c1 recorded_value="137 nM"
compound=Cc1ccccc1NC(=O)NCCF recorded_value="1540 nM"
compound=Cc1c(Cl)cccc1CNC(=O)NCCF recorded_value="40 nM"
compound=Cc1cccc(CNC(=O)NCCF)c1Cl recorded_value="8.5 nM"
compound=Cc1ccnc(CNC(=O)NCCF)c1 recorded_value="343 nM"
compound=O=C(NCCF)NCc1cccc(Cl)c1Cl recorded_value="88 nM"
